Measured values drawn from patent US20220010008A1 for this set.

target_under_test: recombinant human IL-5 protein (human) (UniProt P05113)
method_summary: SPR, human IL-5 immobilized on chip, 1:1 fit
measured_property: pKd
To interpret pKd, take it as minus log10 of a concentration measured in moles per litre.

[[record]]
binder = "154F10G8 (murine hybridoma lead antibody) (antibody, V domains shown) VH: QVQLQQPGAELVKPGASVKLSCKASGYTFTSYWITWVKQRPGQGLEWIGDIYPGSGSTFYNEKFKSEATLTVDTSSSTAYMQLSSLTSEDSAVFYCSTETTLGYWGQGTTLTVSS VL: DVLMTQTPLSLPVSLGDQASISCRSSQSIVHNNGNTYLEWYLQKPGQSPKLLIYKVSNRFSGVPDRFSGSGSGTDFTLKISRVEAEDLGVYYCFQGSHVPFTFGSGTKLEIK"
measured_property = "pKd"
numeric_value = 9.80

[[record]]
binder = "69F2F3 (murine hybridoma lead antibody) (antibody, V domains shown) VH: QVQLKQSGPGLVQPSQSLSITCTVSGFSLSNYGVHWVRQSPGKGLEWLGVIWSGGSTDYNAAFKSRLSITKDNSKSQVVFRMNSLQTDDTATYYCARNKDFLDYWGQGTKFTVSS VL: DIVMTQSPSSLTVTAGEKVTMTCKSSQGLLNSGNQKNYLTWYQQKPGQPPKLLIYWASTRESGVPDRFTGSGSGTDFTLTISSVQAEDLAVYYCQNDYHFPLTFGAGTKLELK"
measured_property = "pKd"
numeric_value = 10.65


Now for a further binder.
I would be grateful if you could share the reported pKd for 102A2E11B6 (murine hybridoma lead antibody) (antibody, V domains shown) VH: QVQLRQSGPGLVQPSQSLSITCTVSGFSLTSYGVHWVRQSPGKGLEWLGVIWSGGSTDYNAVFMSRLSISKDSSKSQVFFKMNSLQTDDTAIYYCARNRYVLDYWGQGTSVTVSS VL: DIVMTQSPSSLSVSAGERVTMRCKSSQSLLTSGDQKNHLAWYQQKPGQPPKLLIYGASTRESGVPDRFTGSGSGTDFTLTITSVQAEDLAVYYCQNDHSFPLTFGAGTKLELK .
10.20
